The entries below come with measured Ki values attached.
- target.or.system: Cannabinoid receptor 1 (Homo sapiens, UniProt P21554)
- Sequence (P21554 whole entry): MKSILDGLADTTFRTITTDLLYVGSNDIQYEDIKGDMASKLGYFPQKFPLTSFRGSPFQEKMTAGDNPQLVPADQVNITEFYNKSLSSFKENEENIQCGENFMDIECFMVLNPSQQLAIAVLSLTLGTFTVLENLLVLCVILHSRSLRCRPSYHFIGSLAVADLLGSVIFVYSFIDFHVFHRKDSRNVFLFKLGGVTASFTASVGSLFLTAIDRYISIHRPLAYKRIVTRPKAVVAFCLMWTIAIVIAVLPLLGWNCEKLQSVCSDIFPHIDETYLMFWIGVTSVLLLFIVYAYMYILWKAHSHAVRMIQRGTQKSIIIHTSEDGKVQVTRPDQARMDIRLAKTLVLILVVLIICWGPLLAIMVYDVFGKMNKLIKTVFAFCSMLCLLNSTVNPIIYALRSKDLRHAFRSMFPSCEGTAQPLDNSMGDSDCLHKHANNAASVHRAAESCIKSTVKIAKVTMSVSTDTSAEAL
# output: bare number, implied unit nM

Kindly note: Cannabinoid receptor 1 (Homo sapiens, UniProt P21554), O=C(C1COc2ccccc2O1)N1CCN(c2ncnc3c2nc(-c2ccccc2Cl)n3-c2ccc(Cl)cc2)CC1 (centres undefined) , Ki value reported: 5

Kindly note: Cannabinoid receptor 1 (Homo sapiens, UniProt P21554), `CS(=O)(=O)N1CCN(c2ncnc3c2nc(-c2ccccc2Cl)n3-c2ccc(Cl)cc2)CC1` , Ki value reported: 24

Kindly note: Cannabinoid receptor 1 (Homo sapiens, UniProt P21554), `O=S(=O)(CC1CCOCC1)N1CCN(c2ncnc3c2nc(-c2ccccc2Cl)n3-c2ccc(Cl)cc2)CC1` , Ki value reported: 3

Kindly note: Cannabinoid receptor 1 (Homo sapiens, UniProt P21554), CC(C(=O)N1CCN(c2ncnc3c2nc(-c2ccccc2Cl)n3-c2ccc(Cl)cc2)CC1)c1ccccc1 (centres undefined) , Ki value reported: 3

====

- target.or.system: Cannabinoid receptor 1 (Homo sapiens)
test.readout: pEC50
The quantity pEC50 is defined as the negative base-10 logarithm of the molar concentration.

Kindly note: Cannabinoid receptor 1 (Homo sapiens), `O=C(Nc1ccc(OC(F)F)nc1)N1CCN(c2ncnc3c2nc(-c2ccccc2Cl)n3-c2ccc(Cl)cc2)CC1` , pEC50 value reported: 6.23

====

Target or system UniProtKB P34972: recorded Ki listed per item.
Sequence (P34972 whole entry): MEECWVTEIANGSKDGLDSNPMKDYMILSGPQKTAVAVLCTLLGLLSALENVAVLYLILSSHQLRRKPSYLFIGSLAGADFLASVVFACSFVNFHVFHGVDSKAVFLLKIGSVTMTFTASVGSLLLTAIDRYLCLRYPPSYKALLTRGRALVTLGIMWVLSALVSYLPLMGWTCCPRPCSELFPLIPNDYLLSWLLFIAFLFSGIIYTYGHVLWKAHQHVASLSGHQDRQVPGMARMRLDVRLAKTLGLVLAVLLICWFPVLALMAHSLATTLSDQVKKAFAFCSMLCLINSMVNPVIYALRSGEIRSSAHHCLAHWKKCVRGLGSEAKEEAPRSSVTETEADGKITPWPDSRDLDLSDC
# output: bare number, implied unit µM

Some molecules with recorded Ki:
O=S(=O)(CCC(F)(F)F)N1CCN(c2ncnc3c2nc(-c2ccccc2Cl)n3-c2ccc(Cl)cc2)CC1 :: 0.5
O=S(=O)(CC1CCOCC1)N1CCN(c2ncnc3c2nc(-c2ccccc2Cl)n3-c2ccc(Cl)cc2)CC1 :: 3

Attention now turns to another entry.
Entry under test: O=C(CC1CCOC1)N1CCN(c2ncnc3c2nc(-c2ccccc2Cl)n3-c2ccc(Cl)cc2)CC1 (centres undefined) . Its Ki was 3

====

- experiment: Drug transport across apical to basolateral side in MDCK cells expressing MDR1 at 10 uM after 1 hr by mass spectrometer
- Assay type: ADME, cell-based, Canis lupus familiaris
- experimental.setup: dog
Labelling field: enter Satisfied if recorded Drug transport is less than 5%. Enter Not satisfied if it equals or exceeds that cut-off.

O=C(Nc1ccc(F)cc1)N1CCN(c2ncnc3c2nc(-c2ccccc2Cl)n3-c2ccc(Cl)cc2)CC1 :: Satisfied

### Prompt Answer whether the compound `O=C(Nc1ccc(OC(F)F)nc1)N1CCN(c2ncnc3c2nc(-c2ccccc2Cl)n3-c2ccc(Cl)cc2)CC1` has Drug transport strictly less than 5%
### Response Satisfied

### Prompt Answer whether the compound `CS(=O)(=O)N1CCN(c2ncnc3c2nc(-c2ccccc2Cl)n3-c2ccc(Cl)cc2)CC1` has Drug transport strictly less than 5%
### Response Not satisfied

### Prompt Answer whether the compound `CCCS(=O)(=O)N1CCN(c2ncnc3c2nc(-c2ccccc2Cl)n3-c2ccc(Cl)cc2)CC1` has Drug transport strictly less than 5%
### Response Not satisfied

====

- target.or.system: Cannabinoid receptor 1 (Homo sapiens)
Labelling field: enter Yes if recorded Ki is less than 5 nM. Enter No if it equals or exceeds that cut-off.

Look over these answered cases.
O=S(=O)(CC1CCCCC1)N1CCN(c2ncnc3c2nc(-c2ccccc2Cl)n3-c2ccc(Cl)cc2)CC1 :: Yes
CCS(=O)(=O)N1CCN(c2ncnc3c2nc(-c2ccccc2Cl)n3-c2ccc(Cl)cc2)CC1 :: Yes
CCCCC(=O)N1CCN(c2ncnc3c2nc(-c2ccccc2Cl)n3-c2ccc(Cl)cc2)CC1 :: No
O=C(OC1CCC1)N1CCN(c2ncnc3c2nc(-c2ccccc2Cl)n3-c2ccc(Cl)cc2)CC1 :: Yes

# input for lookup
### Prompt Answer whether the compound `O=C(CN1CCCCC1)N1CCN(c2ncnc3c2nc(-c2ccccc2Cl)n3-c2ccc(Cl)cc2)CC1` has Ki strictly less than 5 nM
### Response No

====

- target.or.system: Cannabinoid receptor 1 (Homo sapiens, UniProt P21554)
The entries below come with measured Ki values attached.
Record the result as number plus unit.

O=C(CC1CCOC1)N1CCN(c2ncnc3c2nc(-c2ccccc2Cl)n3-c2ccc(Cl)cc2)CC1 (stereo not drawn) :: 8 nM
O=C(N1CCCC1)N1CCN(c2ncnc3c2nc(-c2ccccc2Cl)n3-c2ccc(Cl)cc2)CC1 :: 13 nM
CC(C)(C)CC(=O)N1CCN(c2ncnc3c2nc(-c2ccccc2Cl)n3-c2ccc(Cl)cc2)CC1 :: 2 nM
O=S(=O)(CCC(F)(F)F)N1CCN(c2ncnc3c2nc(-c2ccccc2Cl)n3-c2ccc(Cl)cc2)CC1 :: 1.2 nM
O=C(OCC1CCC1)N1CCN(c2ncnc3c2nc(-c2ccccc2Cl)n3-c2ccc(Cl)cc2)CC1 :: 3 nM

Kindly note: Cannabinoid receptor 1 (Homo sapiens, UniProt P21554), `O=C(NS(=O)(=O)c1ccccc1F)N1CCN(c2ncnc3c2nc(-c2ccccc2Cl)n3-c2ccc(Cl)cc2)CC1` , Ki value reported: 250 nM

Kindly note: Cannabinoid receptor 1 (Homo sapiens, UniProt P21554), `CCOCC(=O)N1CCN(c2ncnc3c2nc(-c2ccccc2Cl)n3-c2ccc(Cl)cc2)CC1` , Ki value reported: 11 nM

Kindly note: Cannabinoid receptor 1 (Homo sapiens, UniProt P21554), `O=C(CC1CCCC1)N1CCN(c2ncnc3c2nc(-c2ccccc2Cl)n3-c2ccc(Cl)cc2)CC1` , Ki value reported: 0.4 nM

====

- experiment: Drug transport across apical to basolateral side in MDCK cells expressing MDR1 at 10 uM after 1 hr by mass spectrometer
- Assay type: ADME, cell-based, Canis lupus familiaris
- experimental.setup: dog
test.readout: Drug transport (%)
# output: bare number, implied unit %

O=C(Nc1ccc(F)cc1F)N1CCN(c2ncnc3c2nc(-c2ccccc2Cl)n3-c2ccc(Cl)cc2)CC1 :: 1.4
N=C(Nc1ccc(F)cc1)N1CCN(c2ncnc3c2nc(-c2ccccc2Cl)n3-c2ccc(Cl)cc2)CC1 :: 0.4
O=C(OCC1CCC1)N1CCN(c2ncnc3c2nc(-c2ccccc2Cl)n3-c2ccc(Cl)cc2)CC1 :: 0
CCCCC(=O)N1CCN(c2ncnc3c2nc(-c2ccccc2Cl)n3-c2ccc(Cl)cc2)CC1 :: 0
O=S(=O)(CC1CCOCC1)N1CCN(c2ncnc3c2nc(-c2ccccc2Cl)n3-c2ccc(Cl)cc2)CC1 :: 9

Entry under test: `CC(C)(C)OC(=O)N1CCN(c2ncnc3c2nc(-c2ccccc2Cl)n3-c2ccc(Cl)cc2)CC1` . Its Drug transport was 3

Entry under test: O=C(C1COc2ccccc2O1)N1CCN(c2ncnc3c2nc(-c2ccccc2Cl)n3-c2ccc(Cl)cc2)CC1 (configuration not stated) . Its Drug transport was 0

Entry under test: `O=C(NC1CCCC1)N1CCN(c2ncnc3c2nc(-c2ccccc2Cl)n3-c2ccc(Cl)cc2)CC1` . Its Drug transport was 3

Entry under test: `O=C(Nc1ccccn1)N1CCN(c2ncnc3c2nc(-c2ccccc2Cl)n3-c2ccc(Cl)cc2)CC1` . Its Drug transport was 1.2

Entry under test: `O=C(Nc1ccc(F)c(F)c1)N1CCN(c2ncnc3c2nc(-c2ccccc2Cl)n3-c2ccc(Cl)cc2)CC1` . Its Drug transport was 0

Entry under test: `O=C(Nc1ccccc1F)N1CCN(c2ncnc3c2nc(-c2ccccc2Cl)n3-c2ccc(Cl)cc2)CC1` . Its Drug transport was 5

Entry under test: `CCS(=O)(=O)N1CCN(c2ncnc3c2nc(-c2ccccc2Cl)n3-c2ccc(Cl)cc2)CC1` . Its Drug transport was 18

Entry under test: `O=C(Nc1ccccc1)N1CCN(c2ncnc3c2nc(-c2ccccc2Cl)n3-c2ccc(Cl)cc2)CC1` . Its Drug transport was 1

Entry under test: `CCCCS(=O)(=O)N1CCN(c2ncnc3c2nc(-c2ccccc2Cl)n3-c2ccc(Cl)cc2)CC1` . Its Drug transport was 5

Entry under test: `CC(C)CS(=O)(=O)N1CCN(c2ncnc3c2nc(-c2ccccc2Cl)n3-c2ccc(Cl)cc2)CC1` . Its Drug transport was 0

Entry under test: `CC(C)S(=O)(=O)N1CCN(c2ncnc3c2nc(-c2ccccc2Cl)n3-c2ccc(Cl)cc2)CC1` . Its Drug transport was 11

Entry under test: `O=S(=O)(C1CC1)N1CCN(c2ncnc3c2nc(-c2ccccc2Cl)n3-c2ccc(Cl)cc2)CC1` . Its Drug transport was 4

====

- experiment: Tmax in C57BL6 mouse plasma at […], po administered in cassette format
- Format: ADME, organism-based
test.readout: Tmax (h)
# output: bare number, implied unit h

Entry under test: `O=C(Nc1ccc(OC(F)F)nc1)N1CCN(c2ncnc3c2nc(-c2ccccc2Cl)n3-c2ccc(Cl)cc2)CC1` . Its Tmax was 4

====

- experiment: Cmax in C57BL6 mouse plasma at […], po administered in cassette format
- Format: ADME, organism-based
- Set-up: dose 2.5 mg/kg, route oral
test.readout: Cmax (ng/mL)
# output: bare number, implied unit ng/mL

Entry under test: `O=C(Nc1ccc(OC(F)F)nc1)N1CCN(c2ncnc3c2nc(-c2ccccc2Cl)n3-c2ccc(Cl)cc2)CC1` . Its Cmax was 500

Provenance of the data: ChEMBL document CHEMBL4229498
